Ref: the supplement of paper PMC8728848

- ASSAYED TARGET: Fuc(a1-2)Gal6S(b1-4)Glc6S
- ASSAY PROTOCOL: glycan array binding signal (z-score within array); higher = stronger binding
- TEST CONDITIONS: glycan notation: IUPAC condensed, linker removed
Many of the other results were omitted from the sample, so the strongest signals are more common in it than they were.
Measured glycan array binding signal (z-score) values are reported for all entries that follow.
METRIC NAME: glycan array binding signal (z-score)

GS13455A-bfa-343-25-343 (Bacteroides fragilis) (protein) KDEIQIVDQDTSWQMDNKYIEEDIREQLGIDPFTDLVYLGYYGNPYTQLEAINDLVNTTLVGKNELSFKVKVTKPYKEDIKVNLMKEDKLVTDFPEMAEGIPLFPSENCTFEGGVLKAGELETTVKLTLKDVEKLNNLSGYVMAIKLTMEGSHEHLAIARTRSSYFVKLNLSIRLDNIDSSNKKIEGKGFNKEISFKSDIRPDKLGSLNDGNFTANNWYTSNANNYLTIILPEKQSLKGFRLDTNTSPSGSYMLKSCRVMVETPDGNWVNHGVFDRKSMDGIAYISFKKPVECTKVRFENMMAFNGRFSVDVNEVTAFR: 0.254
Thrombomodulin (Mus musculus) (protein) ALAKLQPTGSQCVEHECFALFQGPATFLDASQACQRLQGHLMTVRSSVAADVISLLLSQSSMDLGPWIGLQLPQGCDDPVHLGPLRGFQWVTGDNHTSYSRWARPNDQTAPLCGPLCVTVSTATEAAPGEPAWEEKPCETETQGFLCEFYFTASC: -0.056
MAA (Maackia amurensis), P0DKL3 (protein) MATSNSKPTQVLLATFLTFFFLLLNNVNSSDELSFTINNFVPNEADLLFQGEASVSSTGVLQLTRVENGQPQKYSVGRALYAAPVRIWDNTTGSVASFSTSFTFVVKAPNPDITSDGLAFYLAPPDSQIPSGSVSKYLGLFNNSNSDSSNQIVAVELDTYFAHSYDPWDPNYRHIGIDVNGIESIKTVQWDWINGGVAFATITYLAPNKTLIASLVYPSNQTTFSVAASVDLKEILPEWVRVGFSAATGYPTEVETHDVLSWSFTSTLEANCDAATENNVHIARYTA: -0.191
Clec12b (Mus musculus), Q149M0 (protein) MSDEVTYATLMLQDSARVRGNQDGNNLRKEGHPAQSSLWRGAALSLMTLCLVLVTGLVTLATMFLQVSNDINSDSEKLSQLQKSIHPQQDNLSESLNSSRKSLTEESLQSQISALLERQEQMATKLCKEFLIHASDHKCNPCPKTWQWYGNSCYYFSINEEKSWSDSRKDCIDKNATLVKIDSTEERDLLQSQLSLTFSFFWLGLSWNSSGRNWLWEDGSFPPPTLFSDKELASFNGSRDCAYFERGNIYASRCSAEIPWICEKTASLVKTEDLD: -0.568
GIINTLQKYYCRVRGGRCAVLSCLPKEEQIGKCSTRGRKCCRRKK [Beta-Defensin 3 (Homo sapiens), P81534]: 5.67
FGF1 (Homo sapiens), P05230 (protein) MAEGEITTFTALTEKFNLPPGNYKKPKLLYSNGGHFLRILPDGTVDGTRDRSDQHIQLQLSAESVGEVYIKSTETGQYLAMTDGLLYGSQTPNEECLFLERLEENHYNTYISKHAEKNWFVGLKKNGSCKRGPRTHYGQAILFLPLPASSED: 0.797
KILRGVCKKIMRTFLRRISKDILTGKK [NK2 (Sus scrofa)]: 2.24
Gal 2 (Homo sapiens), P05162 (protein) MTGELEVKNMDMKPGSTLKITGSIADGTDGFVINLGQGTDKLNLHFNPRFSESTIVCNSLDGSNWGQEQREDHLCFSPGSEVKFTVTFESDKFKVKLPDGHELTFPNRLGHSHLSYLSVRGGFNMSSFKLKE: -0.193
